B1: Gamma-crystallin D, residues 90 to 170; numbered along this chain, P07320 (parent)
chain: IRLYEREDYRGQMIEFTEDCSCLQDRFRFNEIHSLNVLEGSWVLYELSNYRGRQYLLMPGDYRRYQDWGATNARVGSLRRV

# Variants of: B1
# protocol.details: abundance fitness (aPCA) (normalised: wild type 0, dead -1); higher = more abundant; growth selection in yeast, the domain comes from the species named
# condition.description: Homo sapiens
Binary call on abundance fitness: satisfied from 0.04 upward, not satisfied beneath that.

Known results for variants:
E5R | not satisfied
S41G | satisfied
I32G | satisfied

Read the next record carefully.
Ask: Item `E15F` with abundance fitness of 0.04 or above?
Result: not satisfied
